- CONDITION PARAMETERS: in n-pentanol, 318.15 K
MEASURED PROPERTY: solubility (mole fraction)

Previously resolved entries follow.
STRUCTURE SMILES | OBS VALUE
O=C(/C=C/c1cn(-c2ccccc2)nc1-c1ccccc1Cl)c1nc2ccccc2[nH]1 | 0.0006
COc1ccc(-c2nn(-c3ccccc3)cc2/C=C/C(=O)c2nc3ccccc3[nH]2)cc1OC | 0.000395
O=C(/C=C/c1cn(-c2ccccc2)nc1-c1cccc([N+](=O)[O-])c1)c1nc2ccccc2[nH]1 | 0.000455
O=C(/C=C/c1cn(-c2ccccc2)nc1-c1ccccc1)c1nc2ccccc2[nH]1 | 0.000535
O=C(/C=C/c1cn(-c2ccccc2)nc1-c1ccc(Cl)cc1)c1nc2ccccc2[nH]1 | 0.000387

1 = COc1cccc(-c2nn(-c3ccccc3)cc2/C=C/C(=O)c2nc3ccccc3[nH]2)c1
2 = COc1ccc(-c2nn(-c3ccccc3)cc2/C=C/C(=O)c2nc3ccccc3[nH]2)cc1
Task item: Please indicate which entry, 1 or 2 , has the lower recorded solubility (mole fraction) value. // respond with label for picked entry
Reply: 1
(1: 0.000427, 2: 0.00179)

meta.source: BigSolDB 2.1
